Target: bovine α-thrombin (Bos taurus)
Construct: the enzyme (human or bovine α-thrombin 0.4 nM)
Test: Amidolytic (fluorogenic) assay of thrombin activity, hydrolysis of Tosyl-Gly-Pro-Arg-AMC
Format: biochemical
Details: mean of three determinations ± SEM, ni: not inhibited
Where no end group is shown, it is not given here.
readout.type: Ki
Field note: include the unit after the figure.

Specify Ki for TPKPQSHNDGD [P51, hirudin^45-55] and stop. 720 nM
